system: cat flea (Ctenocephalides felis); experiment: Ctenocephalides felis adulticide assay: single dose screen on treated glass surface (% mortality at 1.26 μg/cm^2, 24 hours); format: in vivo; settings: in vivo
Sorting guide: entries reporting Ctenocephalides felis Mortality (%) 24 h beneath 80% go in the 1 pile, the rest go in the -1 pile.

                                test_smiles  discrete_label
0  CCN(c1ccc(Cl)cc1Oc1ccc(Cl)cc1Cl)S(=O)(=O)C(F)(F)F               1
1  O=S(=O)(Nc1ccc(Cl)cc1Oc1ccc(Cl)cc1)C(F)(F)F              -1
2  O=S(=O)(Nc1ccc(Cl)cc1Sc1cccc(Cl)c1)C(F)(F)F              -1
3  CC(C)N(c1ccc(Cl)cc1Oc1ccccc1F)S(=O)(=O)C(F)(F)F               1
4  O=S(=O)(Nc1ccc(Oc2ccc(Cl)cc2Cl)cc1C(F)(F)F)C(F)(F)F               1
5  O=S(=O)(Nc1ccc(Cl)cc1Sc1ccccc1F)C(F)(F)F              -1
6  CCOCN(c1ccc(Oc2ccccc2)cc1)S(=O)(=O)C(F)(F)F               1

###

tested on: cat flea (Ctenocephalides felis); test: Ctenocephalides felis adulticide assay: single dose screen on treated glass surface (% mortality at 1.26 μg/cm^2, 24 hours); type: in vivo; conditions: in vivo
ENDPOINT: Ctenocephalides felis Mortality (%) 24 h

>>> print(df.to_string())
                                   molecule  observed_value
0  O=S(=O)(Nc1cccc(Cl)c1Oc1ccc(Cl)cc1Cl)C(F)(F)F              20
1  O=S(=O)(Nc1ccc(C(F)(F)F)cc1Oc1cccc(C(F)(F)F)c1)C(F)(F)F             100
2   O=S(=O)(Nc1ccc(Cl)cc1Oc1ccccc1)C(F)(F)F              39
3  CN(c1ccc(Oc2ccccc2)cc1)S(=O)(=O)C(F)(F)F [p2]              64
4  CC(C)(C)c1ccc(Oc2cc(Cl)c(Cl)cc2NS(=O)(=O)C(F)(F)F)cc1              19
5  O=S(=O)(Nc1cc(Cl)c(Cl)cc1Oc1ccc(Cl)cc1Cl)C(F)(F)F              48
6  O=S(=O)(Nc1ccc(Cl)cc1Oc1ccc(F)cc1F)C(F)(F)F              98
7  CC(C)(C)c1ccc(Oc2cc(Cl)ccc2NS(=O)(=O)C(F)(F)F)cc1              58
8  CN(c1cccc(Oc2ccccc2)c1)S(=O)(=O)C(F)(F)F              88
9  O=S(=O)(Nc1cc(C(F)(F)F)ccc1Oc1cccc(C(F)(F)F)c1)C(F)(F)F              94

###

Ctenocephalides felis LC50 reference
test system: cat flea (Ctenocephalides felis); assay: Ctenocephalides felis adulticide assay: dose response on treated glass surface (LC50, 24 hours); format: in vivo; details: adult cat fleas, 24 h mortality, probit analysis
ENDPOINT: Ctenocephalides felis LC50 (μg/cm^2)

>>> print(df.to_string())
                                 test_smiles                    endpoint  unit_symbol  observed_value
 0  O=S(=O)(Nc1ccc(Cl)cc1Oc1ccccc1C(F)(F)F)C(F)(F)F  Ctenocephalides felis LC50      μg/cm^2            0.19
 1  O=S(=O)(Nc1ccc(Cl)cc1Oc1ccc(Cl)cc1Cl)C(F)(F)F  Ctenocephalides felis LC50      μg/cm^2            0.32
 2  O=S(=O)(Nc1cc(C(F)(F)F)ccc1Oc1cccc(C(F)(F)F)c1)C(F)(F)F  Ctenocephalides felis LC50      μg/cm^2            0.09
 3  O=S(=O)(Nc1ccc(Cl)cc1Sc1cccc(Cl)c1)C(F)(F)F  Ctenocephalides felis LC50      μg/cm^2            0.30
 4  O=S(=O)(Nc1cc(Cl)ccc1Oc1ccc(Cl)cc1Cl)C(F)(F)F  Ctenocephalides felis LC50      μg/cm^2            0.59
 5  O=S(=O)(Nc1ccc(Cl)cc1Oc1ccc(F)cc1)C(F)(F)F  Ctenocephalides felis LC50      μg/cm^2            0.33
 6  O=S(=O)(Nc1ccc(Cl)cc1Oc1ccc(F)c(F)c1)C(F)(F)F  Ctenocephalides felis LC50      μg/cm^2            0.78
 7  O=S(=O)(Nc1ccc(C(F)(F)F)cc1Oc1cccc(C(F)(F)F)c1)C(F)(F)F  Ctenocephalides felis LC50      μg/cm^2            1.88
 8  O=S(=O)(Nc1ccc(Cl)cc1Sc1ccc(Cl)cc1)C(F)(F)F  Ctenocephalides felis LC50      μg/cm^2            0.15
 9  O=S(=O)(Nc1ccc(Cl)cc1Oc1ccc(Cl)cc1)C(F)(F)F  Ctenocephalides felis LC50      μg/cm^2            0.66
10   O=S(=O)(Nc1ccc(Cl)cc1Sc1ccccc1)C(F)(F)F  Ctenocephalides felis LC50      μg/cm^2            0.97
11  O=S(=O)(Nc1ccc(Cl)cc1Oc1ccccc1F)C(F)(F)F  Ctenocephalides felis LC50      μg/cm^2            0.05
12  O=S(=O)(Nc1ccc(Cl)cc1Oc1ccc(F)cc1F)C(F)(F)F  Ctenocephalides felis LC50      μg/cm^2            0.27

meta.source: patent US20060281695A1
